Tested on: Human HelaM cells
assay_method_text: Cytotoxicity MTT assay (TOX HELAM)
Type: cell-based
study_conditions: 72 hours
assay_readout: TOX HELAM (222.125) CC50

Here's what some known entries look like.
> print(dat)
                                   molecule             assay.readout  experimental.result
1  O=C1CCc2cc(/C=C/C(=O)N3CC4C=C(c5ccco5)CC4C3)cnc2N1 (stereo not shown)  TOX HELAM (222.125) CC50          >9.43 µg/mL
2  O=C1CCc2cc(/C=C/C(=O)N3CC4C=C(c5ccoc5)CC4C3)cnc2N1 (stereo not shown)  TOX HELAM (222.125) CC50          >9.43 µg/mL
3  N#Cc1ccccc1C1=CC2CN(C(=O)/C=C/c3cnc4c(c3)CCC(=O)N4)CC2C1 (stereo not shown)  TOX HELAM (222.125) CC50       >10.3108 µg/mL
4  Cc1ccccc1N1C[C@H]2CN(C(=O)/C=C/c3cnc4c(c3)CCC(=O)N4)C[C@H]2C1  TOX HELAM (222.125) CC50       >10.1103 µg/mL
5  O=C1CCc2cc(/C=C/C(=O)N3CC4C=C(c5cccnc5)CC4C3)cnc2N1 (racemic)  TOX HELAM (222.125) CC50        >3.8646 µg/mL

Tell us which TOX HELAM (222.125) CC50 value is on record for O=C1CCc2cc(/C=C/C(=O)N3CC4C=C(c5ccccc5Cl)CC4C3)cnc2N1 (stereo not shown)
4.77 µg/mL

Answer with the recorded TOX HELAM (222.125) CC50 of O=C1CCc2cc(/C=C/C(=O)N3C[C@@H]4CN(c5nccs5)C[C@@H]4C3)cnc2N1 only.
>3.9549 µg/mL

Fill in TOX HELAM (222.125) CC50 for record O=C1CCc2cc(/C=C/C(=O)N3C[C@@H]4CN(c5ccccc5Cl)C[C@@H]4C3)cnc2N1
>10.6233 µg/mL

Hello, please tell me recorded TOX HELAM (222.125) CC50 for this one: Cc1ccccc1C1=CC2CN(C(=O)/C=C/c3cnc4c(c3)CCC(=O)N4)CC2C1 (stereo not shown)
6.19 µg/mL

// fetch TOX HELAM (222.125) CC50 given entry Cn1nccc1C1=CC2CN(C(=O)/C=C/c3cnc4c(c3)CCC(=O)N4)CC2C1 (stereo not shown)
>9.783 µg/mL

Complete the entry with TOX HELAM (222.125) CC50 for O=C1CCc2cc(/C=C/C(=O)N3C[C@H]4CC(c5ccccc5)=C[C@H]4C3)cnc2N1 (single isomer, unassigned)
>9.683 µg/mL

Please give measured TOX HELAM (222.125) CC50 of the following entry: O=C1CCc2cc(/C=C/C(=O)N3CC4C=C(c5ccccc5F)CC4C3)cnc2N1 (stereo not shown)
>4.0346 µg/mL

Determine from records and report TOX HELAM (222.125) CC50 for O=C1CCc2cc(/C=C/C(=O)N3CC4C=C(c5cccs5)CC4C3)cnc2N1 (stereo not shown)
>3.256 µg/mL

Fill in TOX HELAM (222.125) CC50 for record O=C1CCc2cc(/C=C/C(=O)N3C[C@@H]4CN(c5ccccc5)C[C@@H]4C3)cnc2N1
>19.4696 µg/mL

Annotate the molecule O=C1CCc2cc(/C=C/C(=O)N3C[C@@H]4CC(c5ccccc5)=C[C@@H]4C3)cnc2N1 (single isomer, unassigned) with its measured TOX HELAM (222.125) CC50.
>9.683 µg/mL

Supply measured TOX HELAM (222.125) CC50 of O=C1CCc2cc(/C=C/C(=O)N3CC4C=C(c5ccsc5)CC4C3)cnc2N1 (stereo not shown) in your reply.
>3.915 µg/mL

Note down TOX HELAM (222.125) CC50 recorded for COc1ccccc1N1C[C@H]2CN(C(=O)/C=C/c3cnc4c(c3)CCC(=O)N4)C[C@H]2C1
>10.5122 µg/mL

Determine from records and report TOX HELAM (222.125) CC50 for O=C1CCc2cc(/C=C/C(=O)N3CC4C=C(c5ccncc5)CC4C3)cnc2N1 (stereo not shown)
>9.707 µg/mL

Answer with the recorded TOX HELAM (222.125) CC50 for the molecule listed here: O=C1CCc2cc(/C=C/C(=O)N3CC4C=C(c5ccccc5)CC4C3)cnc2N1 (stereo not shown)
>3.8547 µg/mL
